Data provenance is paper PMC11854949.

biological target: recombinant human ASK1 protein (catalytic domain, residues 659–951) (Homo sapiens); construct: The catalytic domain of ASK1 (encoding residues 659–951) was modified to include an N-terminal 6XHis tag; 6XHis (N); experiment: ASK1 enzyme inhibition assay (ADP-Glo); settings: mean ± SEM, n = 3 experiments; 25 μM ATP, 0.1 μg/μL MBP, ADP-Glo
Sequence (Q99683 659-951): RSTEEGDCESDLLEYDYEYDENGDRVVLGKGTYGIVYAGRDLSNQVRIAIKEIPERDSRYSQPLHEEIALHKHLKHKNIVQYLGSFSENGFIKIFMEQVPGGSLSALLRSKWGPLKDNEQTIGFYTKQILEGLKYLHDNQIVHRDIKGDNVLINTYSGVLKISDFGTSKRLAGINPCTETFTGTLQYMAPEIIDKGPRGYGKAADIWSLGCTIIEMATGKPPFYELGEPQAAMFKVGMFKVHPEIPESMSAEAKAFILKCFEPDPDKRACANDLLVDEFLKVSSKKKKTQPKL
So basically: is IC50 under 50 nM? Then class 1. Not under? Then class 0.

As a guide, the following entries are already answered.
Quick check: IC50 of "CC(C)n1cnnc1-c1cccc(NC(=O)N2CCc3ccccc3C2)n1" under 50 nM? class 0

Quick check: IC50 of "COc1ccc2c(c1)CCN2C(=O)Nc1cccc(-c2nncn2C(C)C)n1" under 50 nM? class 1

Switching to the query record.
Quick check: IC50 of "CC(C)n1cnnc1-c1cccc(NC(=O)N2CCc3cc(C(F)(F)F)ccc32)n1" under 50 nM? class 0
